PROTOCOL: yeast display, Sf9 membrane polyspecificity reagent, FACS + sequencing; frameworks hold sequencing errors
PARAMETER: polyreactivity (PSR sort gate)

For orientation, consider the following solved cases.
SEQUENCE_CHAIN: QVQLVESGGGLVQAGGSLRISCAASGFIFTLYAMGWYRQAPGKERELVAAISKRGGSTNYADSVKGRFTISRDNAKNTVYLLMNSLKPEDTAVYYCANARPGFLYDHWGQGTQLTVSS
RECORDED_MEASUREMENT: high polyreactivity

SEQUENCE_CHAIN: QVQLVESGGGLVQAGGSLRLSCAASGSIFDTNAMGWYRQAPGKERELVAAINDSGGSTDYADSVKGRFTISRDNAKNTVYLQMNSLKPEDTAVYYCAADIYYTGYNGPEYYWVGMDYWGQGTQVTVSS
RECORDED_MEASUREMENT: low polyreactivity

SEQUENCE_CHAIN: QVQLVESGGGLVQAGGSLRLSCADSGLIFKYYAMGWYRQAPGKERELVAVITSSGGSTYYADSVKGRFTISRDNAKNTVYLQMNSLKPEDTAVYYCAARRVRWPYDYWGQGTQVTVSS
RECORDED_MEASUREMENT: high polyreactivity

SEQUENCE_CHAIN: QVQLVESGGGLVQAGGSLRISCAASGIIFRGNAMGWYRQAPGKERELVAAISSGGGTYYADSVKGRLTISRDNAKNTVYLQMNSLKPEDTAVYYCNRVRYYQYGYDYWGQGTEVTVSS
RECORDED_MEASUREMENT: high polyreactivity

SEQUENCE_CHAIN: QVQLVESGGGLVQAGGSLSLSCAASGIFKYYMGWYRQAPGKERELVAGITKRGGSTYYADSVKGRFTISRDNAKNTVYLQKNSLKPEDTAVYYCNAVGPKRYDYWGQGTQVTVSS
RECORDED_MEASUREMENT: high polyreactivity

sequence QVQLVESGGGLVQAGGSLRLSCAASGSTFFRNAMGWYRQAPGKERELVASITSGGNTKYADSVKGRFTISRDNAKNTVYLQMNSLKPEDTAVYYCAAKFYHFASYSRLYNYWGQGTQVTVSS , polyreactivity (PSR sort gate) observed: low polyreactivity

get_value(item= QVQLVESGGGLVQAGGSLRLSCAASGRTFYGYAMGWYRQAPGKERELVASISRDASTNYADSVKGRFTISRDNAKNTVYLQMNSLKPEDTAVYYCAADIWYYRYPIYYYSYDYWGLGTQVTVSS , readout=polyreactivity (PSR sort gate)) returns low polyreactivity

According to the records, this sequence QVHLVESGGGLVQAGGSLRISCAATGYTFLYNAMGWYRQAPGKEREFVAGIRRSVGSTYYADSVKGRFTISRDNAKNTVYLQMNSMTREDTAVYYCALVPALYRYRVGTYAYDYWGQGTQVTVSS displays polyreactivity (PSR sort gate) of low polyreactivity

Kindly note the recorded polyreactivity (PSR sort gate) for QVQLVESVGGLVQAGGSLRLSCAASGSTFQSNGMGWYRQAPGKERELVAAITSTDASTSYADSVKGRFTISRDNAKITVYLQMNSLKPEDTAVYYCAADFPVASGAELDYWGQGTQVTVSS , which is low polyreactivity

Reported polyreactivity (PSR sort gate) for QVQLVESGGGLVQAGGSLRLSCTASGSIFTRNTMGSYRQAPGKERELVAAISRRGGSTDYADSVKGRFTISRDNAKNTVYLQMNSLKPEDTAVYYCAADLGYEYDYWGQGTQVTVSS was high polyreactivity

Input QVQLVESGGGLVQAGGSLSLSCAASGLILSDNAMGWYRQAPGKEREFVASITSSGGSTHYADSVKGRFTISRDNAKNTVYFQMNSLKPEDTAVYYCAKDYYEGDSYPYPGYEYWGQGTQVTVSS . Output polyreactivity (PSR sort gate): low polyreactivity

---

PROTOCOL: yeast display, Sf9 membrane polyspecificity reagent, FACS + sequencing; frameworks hold sequencing errors
PARAMETER: polyreactivity (PSR sort gate)

Below: 4 sequences and their reported polyreactivity (PSR sort gate).
SEQUENCE_CHAIN: QGQLVESGGGLVQAGGSLRLSCAASGSIYPLNVMGWYRQSPGKERELVATISKSGGSTYYADSVKGRITISRDNAKNTVYLQMNSLKPEDTGVYNCTVGRYVVGGTSVGYWGQGTQVSVSS
polyreactivity (PSR sort gate): low polyreactivity
--
SEQUENCE_CHAIN: QVQLLESGGGLVQAGGSLRLSCAASGSIFDYNAMGWYRQAPGNERELVADITISDDSTYYADSVKGRFTISRDNAKNTVNLQMNSRQPEDTAVYYCAADIKYYWYYYYWAYAYDYWGQGTQVTVSS
polyreactivity (PSR sort gate): high polyreactivity
--
SEQUENCE_CHAIN: QVQLVESGGGLVQAGGSLRLSCDASGSIFPVYAMGWYRQAPGKERELVAAISSRGGRTYYADSVKGRFTISRDNAKNTVYLQMNSLKPEDNAVYYCATDYATYYRLPSQYDYWGQGTQVTVSS
polyreactivity (PSR sort gate): low polyreactivity
--
SEQUENCE_CHAIN: QVQLVESVGGLVQAGGSLRLSCAASGRIFARYAMGWYRQAPGKERELVAAITKSVGSTYYADSVKGRFTISRDNAKKTVYLQMNSLKPEDTAVYYCARVVADSEYDYWGQGTQVTVSS
polyreactivity (PSR sort gate): high polyreactivity

get_value(item= QVQLVESGGGLVQAGGSLRLSCAASGSIFGYYAMGWYRQAPGKERELVAAIRRSGGSTYYADSVKGRFTISRDNAKNTVYLQMNSLKPEDTAVYYCAARFKSSDWHYYYWGQGTQVTVSS , readout=polyreactivity (PSR sort gate)) returns high polyreactivity

---

PROTOCOL: yeast display, Sf9 membrane polyspecificity reagent, FACS + sequencing; frameworks hold sequencing errors
PARAMETER: polyreactivity (PSR sort gate)

Take a look at these entries with their results.
SEQUENCE_CHAIN: QVQLVESGGGLVQAGGSLRLSCAASGIIFTRYAMGWYRQAPGKERELVAAITRNGVSTYYADSVKGRFTISRDNAKNSVYLQMNSLKPEDTAVYYCNTYVLRRYAYGYWGQGTQVTVSS
polyreactivity (PSR sort gate): high polyreactivity
--
SEQUENCE_CHAIN: QVQLVESGGGLVQAGGSLRLSCAASGIIFGEYAMGWYRQAPGKERELVAAISQSGGTYYADSVKGRFTISRDNAKNTVYLQMNSLKPEDTAVYYCNADYWAYISRVRYDYWGQGTQVTVSS
polyreactivity (PSR sort gate): low polyreactivity
--
SEQUENCE_CHAIN: QVQLVESGGGLVQAGGSLRLSCAASGRIFGYNAMGWYRQAPGKERELVAAIRYSGGRTYYADSVKGRFTISRDNAKNTVYLQMNSLKREDTAVYYCAATAFDKLKVWYYYWGQGTQVTVSS
polyreactivity (PSR sort gate): high polyreactivity
--
SEQUENCE_CHAIN: QVQLVESGGGLVQAGGSLRLSCAASGFIFGLNAMGWYRPAPGKERELVAAIRSASSTNYADSVKGRFTISRDNAKNTVYLQMNSLKPEDTAVYYCAAEYVTYQQGFWGYDYWGQGTQVTVSS
polyreactivity (PSR sort gate): low polyreactivity

Lab note: next sequence to report on.
According to the records, this sequence QVQLVESGGGLVHAGGSLRLSCAASGRTFNGNAMGWYRQAPGKERELVAVITGSGGSTYYADSVKGRYTISRDNAKNTVYLQMNSLKPEDTAVYYCNKKVQRRSWYDYWGQGTQVTVSS displays polyreactivity (PSR sort gate) of low polyreactivity

---

PROTOCOL: yeast display, Sf9 membrane polyspecificity reagent, FACS + sequencing; frameworks hold sequencing errors
PARAMETER: polyreactivity (PSR sort gate)

Guide cases for polyreactivity (PSR sort gate), answers given:
SEQUENCE_CHAIN: QVHLVESGGGLVQAGGSLGLSCAASGNIFSSNAMGWYTQAPGKERELVDAITRSGGSTYYADSVKGRFTISRDNAKKTVYLQLNSQKPEDTAVYYGAARHYPRNSWGYDYWGQGTQVTVSS
RECORDED_MEASUREMENT: high polyreactivity
--
SEQUENCE_CHAIN: QVQLVESGGGLVQAGGSLRLSCAASGSILAYYARGWYRQAPGQERELVADIRAGGGNTYYADSVKGRFTISRDNAKNTVYLQMNSLKPEDTAVYYCNADWHFWYKWESYDYDYWGQGTQVTVSS
RECORDED_MEASUREMENT: low polyreactivity
--
SEQUENCE_CHAIN: QVQLVESGGGLVQAGGSLRLSCAASGFIFGPYAMGWYRQAPGKERELVAASWRGGSTYYADSVKGRFTISRDNAKNTVYLQMNSLKPEDTAVYYCAADVFYSLYYYWGQGTQVTVSS
RECORDED_MEASUREMENT: low polyreactivity
--
SEQUENCE_CHAIN: QGQLVESGGGLVQAGGSLRLSCAASGGIFVGYPMGWYRQAPGKERELVASSDVRVGSTYYGDSVKGRFTISRDKAKNTVYLQMTSLKPEDTAVYSCEAGGRAVRIYWGYYRTSYDYWGLGTQVTVSS
RECORDED_MEASUREMENT: low polyreactivity
--
SEQUENCE_CHAIN: QVQLVESAGGLVQAGGSLLLSCAASGSTFGTYAMGWYRQAPGKERELVAAISTGGSTYYADSVKGRFTISRDNAKNTVYLQMNSLKPEDTAVYYCAALAEYVRRASDYWGQGTQVTVSS
RECORDED_MEASUREMENT: low polyreactivity
--
SEQUENCE_CHAIN: QVQLEESGGGLVQAGGSLRLSCAASGSIFKGYAMGWYRQAPGKESELVAAISGGGGSTYYADSVKGRFTISRDNAKNTVYLQMNSLKPEDTAVYYCNRDDSWSPSGAYDYWGQGTQVNVSS
RECORDED_MEASUREMENT: low polyreactivity
--
SEQUENCE_CHAIN: QDQLVESGGGLVQAGGSLRLSCAASGSTFRGNAKGWYRQAPGKERELVAAITGSGGRRYYADSVKGRFTISRDYAKNTVYLQMNSLKPEDTAVYYCAAVYYGYRDRTDYGYWGQGTQVTVSS
RECORDED_MEASUREMENT: high polyreactivity
--
SEQUENCE_CHAIN: QVQLVESGGGLVQAGGSLRLSCAASGSIFRYYAMGWYRQAPGKERELVASISWSGTSTNYADSVKGRFTISRDNAKNTVYLQMNSLKPEDTAVYYCNKVRWGRYYTRYDYWGQGTQVTVSS
RECORDED_MEASUREMENT: high polyreactivity

Record QVQLVESGGGLVQAGGSLRLSCAASGYIFYFNAMGWYRQAPGKERELVAAISSRGTGTYADSVKGRFTISRDNAKNTVYLQMNSLKPEDTAVYYCNAYPSIYPGFYKTFFNMDYWGQGTQVTVSS , field polyreactivity (PSR sort gate): low polyreactivity

Reported polyreactivity (PSR sort gate) of QVQLVESGGGLVQAGGSLRLSCAASGSTFGDYAMGWYRPAPGKERELVAAITIGGITTYADSVKGRFTISRDNAKNTVYLQMNSLKPEDTAVYYCAAAERGDWDDYWGQGTQVTVSS : low polyreactivity

The measured polyreactivity (PSR sort gate) associated with QVQLVESGGGIVEAGVSLRISCAASGSIFTKNAMVWYRPAPGKARELVAAISSGGSTYYADSEKGRFSISRDNAKNTVYLQMNSLKPEDTAVYYCARGASFYLKFYYWGQGTQVTVSS reads high polyreactivity

Input QVQLVESGGGLVQAGGRLRLSCAASGSTFVGNAMGWYRQAPGKERELVAAIRKSGGRTYYADSVKGRFTISRDNAKNTVYLQMNSLKPEDTEVYYCAVDRLLYYLIYYRAGVEGGYWGQGTQVTVSS . Output polyreactivity (PSR sort gate): high polyreactivity

Briefly, polyreactivity (PSR sort gate) measured for QVQLVESGGGLVQAGGSLRFSCAASGSIFIANAMGWYRQAPGQERALVAAIDSGGSTNYADSVKGRFTISRDNAKNTVYLQMNSLKPEDTAVYYCADDGTLTAPGGDYWGQGTQVTVSS : high polyreactivity

Input QDQLVESGGGLVQAGGSLRLSCAASGRTFRSYVMGWYRQAPGKERELVAAITTSGGSTYYADSVKGRFTISRDNAKNTVYLQMNSLKPEDTAVYYCAAEYYTYTGHYDSWYGDDYWGQGTQVTVSS . Output polyreactivity (PSR sort gate): high polyreactivity

Form field polyreactivity (PSR sort gate), entry QVQLVESGGGLVQPGGSLRISCAASGFTFVYYVMGWYRQAPGKERELVAAINAGGGSTYYADSVKGRFTISRDNAKNTVYLQMNSLKPEDTAVYFCNARVRVRLGRNWSSYYYWGQGTEVTVSS : high polyreactivity
